METHOD DESCRIPTION: Drug concentration in brain of monoiodoacetate-induced Sprague-Dawley rat model of osteoarthritis at 10 mg/kg, po administered for 5 days and measured after 15 mins
Assay type: ADME, organism-based
SETTINGS: time 5 day, read-out: Ct
MEASURED PROPERTY: concentration at 120 h

QUERY: Supply recorded concentration at 120 h for O=C(c1ccc2cc(Oc3ccc(C(F)F)cn3)ccc2n1)N1CCNCC1 here.
RESULT: 720 ng/mL

----------
METHOD DESCRIPTION: in vitro
SETTINGS: dog, MDCK
Hi, to clarify the labels: True covers Papp from 20 ×10⁻⁶ cm/s upward, False covers anything below 20 ×10⁻⁶ cm/s.

[
  {
    "SMILES STR": "O=C(COc1ccc2cc(Oc3ccc(C(F)(F)F)cn3)ccc2n1)N1CCCCC1",
    "ANSWER LABEL": "True"
  }
]

QUERY: Evaluate CN1CCN(C(=O)c2ccc3cc(Oc4ccccn4)ccc3n2)CC1 : Papp at minimum 20 ×10⁻⁶ cm/s?
RESULT: False

QUERY: Evaluate N#Cc1ccc(Oc2ccc3nc(OCC(=O)NCC(N)=O)ccc3c2)cc1 : Papp at minimum 20 ×10⁻⁶ cm/s?
RESULT: False

QUERY: Evaluate CN1CCN(C(=O)COc2ccc3cc(Oc4ccccn4)ccc3n2)CC1 : Papp at minimum 20 ×10⁻⁶ cm/s?
RESULT: True

QUERY: Evaluate N#Cc1ccc(Oc2ccc3nc(OCC(=O)N4CCOCC4)ccc3c2)cc1 : Papp at minimum 20 ×10⁻⁶ cm/s?
RESULT: True

QUERY: Evaluate O=C1CN(C(=O)COc2ccc3cc(Oc4ccccn4)ccc3n2)CCN1 : Papp at minimum 20 ×10⁻⁶ cm/s?
RESULT: True

----------
METHOD DESCRIPTION: Clearance in iv dosed dog
Type: ADME, organism-based, Canis lupus familiaris
SETTINGS: in vivo
MEASURED PROPERTY: clearance (mL/min/kg)
One number for each entry, in mL/min/kg.

QUERY: Supply recorded clearance for O=C(c1ccc2cc(Oc3ccc(C(F)(F)F)cn3)ccc2n1)N1CC[C@@H](F)C1 here.
RESULT: 5

----------
METHOD DESCRIPTION: Drug concentration in plasma of monoiodoacetate-induced chronic Sprague-Dawley rat model of osteoarthritis at 0.3 mg/kg, po administered twice for 1 day
Assay type: ADME, organism-based
MEASURED PROPERTY: concentration at 24 h (ng/mL)
Give bare numbers, in ng/mL.

QUERY: Supply recorded concentration at 24 h for O=C(c1ccc2cc(Oc3ccc(C(F)(F)F)cn3)ccc2n1)N1CC[C@@H](F)C1 here.
RESULT: 70

----------
METHOD DESCRIPTION: Drug concentration in plasma of monoiodoacetate-induced chronic Sprague-Dawley rat model of osteoarthritis at 3 mg/kg, po administered twice for 1 day
Type: ADME, organism-based
MEASURED PROPERTY: concentration at 24 h (ng/mL)
Numbers only, in ng/mL.

QUERY: Supply recorded concentration at 24 h for O=C(c1ccc2cc(Oc3ccc(C(F)(F)F)cn3)ccc2n1)N1CC[C@@H](F)C1 here.
RESULT: 750

----------
METHOD DESCRIPTION: Oral bioavailability in dog
Type: ADME, organism-based, Canis lupus familiaris
SETTINGS: in vivo
MEASURED PROPERTY: bioavailability

QUERY: Supply recorded bioavailability for O=C(c1ccc2cc(Oc3ccc(C(F)(F)F)cn3)ccc2n1)N1CC[C@@H](F)C1 here.
RESULT: 85%

----------
METHOD DESCRIPTION: in vivo
SETTINGS: Sprague-Dawley, rat, po
MEASURED PROPERTY: bioavailability (%)
Numbers only, in %.

Worked cases, answers included:
[
  {
    "MOLECULE": "O=C(c1ccc2cc(Oc3ccc(C(F)(F)F)cn3)ccc2n1)N1CCNCC1",
    "bioavailability / %": 98
  },
  {
    "MOLECULE": "O=C(c1ccc2cc(Oc3ccc(C(F)(F)F)cn3)ccc2n1)N1CC[C@H](F)C1",
    "bioavailability / %": 104
  },
  {
    "MOLECULE": "O=C(c1ccc2cc(Oc3cc(C(F)(F)F)ccn3)ccc2n1)N1CCNCC1",
    "bioavailability / %": 91
  },
  {
    "MOLECULE": "O=C(c1ccc2cc(Oc3ccc(C(F)(F)F)cn3)ccc2n1)N1CCNC(C(F)(F)F)C1 (stereo not given)",
    "bioavailability / %": 106
  },
  {
    "MOLECULE": "O=C(c1ccc2cc(Oc3ccc(OC(F)(F)F)cn3)ccc2n1)N1CCNCC1",
    "bioavailability / %": 92
  }
]

Respectfully, I request bioavailability for each entry included below.
1. O=C(c1ccc2cc(Oc3ccc(C(F)F)cn3)ccc2n1)N1CCNCC1
2. O=C(N[C@H]1C[C@@H](O)C1)c1ccc2cc(Oc3ccc(C(F)(F)F)cn3)ccc2n1
3. CS(=O)(=O)C1CN(C(=O)c2ccc3cc(Oc4ccc(C(F)(F)F)cn4)ccc3n2)C1
4. CN1CCN(C(=O)COc2ccc3cc(Oc4ccccn4)ccc3n2)CC1
5. N#Cc1ccc(Oc2ccc3nc(C(=O)N4CCNCC4)ccc3c2)cc1

RESULT:
[96, 23, 126, 10, 89]

----------
METHOD DESCRIPTION: Drug concentration in brain of monoiodoacetate-induced Sprague-Dawley rat model of osteoarthritis at 30 mg/kg, po administered for 5 days and measured after 15 mins
Format: ADME, organism-based
SETTINGS: time 5 day, read-out: Ct
MEASURED PROPERTY: concentration at 120 h (ng/mL)
Numbers only, in ng/mL.

QUERY: Supply recorded concentration at 120 h for O=C(c1ccc2cc(Oc3ccc(C(F)F)cn3)ccc2n1)N1CCNCC1 here.
RESULT: 1560

----------
METHOD DESCRIPTION: in vivo
SETTINGS: Sprague-Dawley, rat, po
MEASURED PROPERTY: bioavailability (%)
Numbers only, in %.

Worked cases, answers included:
[
  {
    "SMILES STR": "O=C(c1ccc2cc(Oc3ccc(C(F)(F)F)cn3)ccc2n1)N1CC[C@@H](F)C1",
    "UNITS OF MEASURE": "%",
    "READING": 80
  },
  {
    "SMILES STR": "N#Cc1ccc(Oc2ccc3c(ccc(=O)n3CCN3CCCCC3)c2)cc1",
    "UNITS OF MEASURE": "%",
    "READING": 17
  },
  {
    "SMILES STR": "CS(=O)(=O)CCNC(=O)c1ccc2cc(Oc3ccc(C(F)(F)F)cn3)ccc2n1",
    "UNITS OF MEASURE": "%",
    "READING": 80.4
  },
  {
    "SMILES STR": "O=C(NC1CC(F)(F)C1)c1ccc2cc(Oc3ccc(C(F)(F)F)cn3)ccc2n1",
    "UNITS OF MEASURE": "%",
    "READING": 82
  }
]

Now consider the entry below.
QUERY: Supply recorded bioavailability for CC(=O)c1ccc(Oc2ccc3nc(C(=O)N4CCNCC4)ccc3c2)cc1 here.
RESULT: 54

----------
METHOD DESCRIPTION: Half-life in orally dosed monkey
Format: ADME, organism-based, Macaca mulatta
SETTINGS: rhesus monkey, in vivo; route po
MEASURED PROPERTY: half-life (h)
One number for each entry, in h.

QUERY: Supply recorded half-life for O=C(c1ccc2cc(Oc3ccc(C(F)(F)F)cn3)ccc2n1)N1CC[C@@H](F)C1 here.
RESULT: 7.6

----------
METHOD DESCRIPTION: Ratio of free drug concentration in brain to plasma of rat
Assay type: ADME, cell-free
SETTINGS: brain and plasma
Would you kindly list Kp uu for each of these compounds?
Give bare numbers.

[
  {
    "SMILES STR": "O=C(c1ccc2cc(Oc3ccc(C(F)F)cn3)ccc2n1)N1CCNCC1",
    "MEASURED PROPERTY": "Kp uu",
    "READING": 0.14
  }
]

Respectfully, I request Kp uu for each entry included below.
1. O=C(c1ccc2cc(Oc3ccc(C(F)(F)F)cn3)ccc2n1)N1CC[C@@H](F)C1
2. CN1CCN(C(=O)COc2ccc3cc(Oc4ccccn4)ccc3n2)CC1
3. N#Cc1ccc(Oc2ccc3c(ccc(=O)n3CCN3CCCCC3)c2)cc1
4. O=C(c1ccc2cc(Oc3ccc(C(F)(F)F)cn3)ccc2n1)N1CCNCC1

RESULT:
[0.29, 0.88, 0.45, 0.08]

----------
Would you kindly list Papp for each of these molecules?
METHOD DESCRIPTION: in vitro
SETTINGS: PAMPA
Give bare numbers, in ×10⁻⁶ cm/s.

Worked cases, answers included:
[
  {
    "MOLECULE": "O=C(N[C@H]1C[C@@H](O)C1)c1ccc2cc(Oc3ccc(C(F)(F)F)cn3)ccc2n1",
    "READING": 19.5
  },
  {
    "MOLECULE": "CS(=O)(=O)C1CN(C(=O)c2ccc3cc(Oc4ccc(C(F)(F)F)cn4)ccc3n2)C1",
    "READING": 21.5
  },
  {
    "MOLECULE": "O=C(c1ccc2cc(Oc3ccc(C(F)(F)F)cn3)ccc2n1)N1CCNCC1",
    "READING": 4.7
  },
  {
    "MOLECULE": "O=C(c1ccc2cc(Oc3ccc(S(=O)(=O)C(F)(F)F)cc3)ccc2n1)N1CCNCC1",
    "READING": 0.8
  },
  {
    "MOLECULE": "N#Cc1ccc(COc2ccc3nc(C(=O)N4CCNCC4)ccc3c2)cc1",
    "READING": 2.7
  },
  {
    "MOLECULE": "O=C(c1ccc2cc(Oc3ccc(OC(F)(F)F)cn3)ccc2n1)N1CCNCC1",
    "READING": 5.1
  },
  {
    "MOLECULE": "O=C(c1ccc2cc(Oc3ncc(C(F)(F)F)cn3)ccc2n1)N1CCNCC1",
    "READING": 1.5
  },
  {
    "MOLECULE": "O=C(NC1CC(F)(F)C1)c1ccc2cc(Oc3ccc(C(F)(F)F)cn3)ccc2n1",
    "READING": 12.1
  }
]

Respectfully, I request Papp for each entry included below.
1. O=C(c1ccc2cc(Oc3ccc(C(F)(F)F)cc3)ccc2n1)N1CCNCC1
2. O=C(c1ccc2cc(Oc3cnc(C(F)(F)F)cn3)ccc2n1)N1CCNCC1
3. O=C(c1ccc2cc(Oc3ccc(C(F)(F)F)cn3)ccc2n1)N1CC(F)(F)C1
4. N#Cc1ccc(-c2ccc3c(ccc(=O)n3CCN3CCCCC3)c2)cc1
5. O=C(NC1CCC1)c1ccc2cc(Oc3ccc(C(F)(F)F)cn3)ccc2n1
6. N#Cc1ccc(-c2ccc3c(ccc(=O)n3CC(=O)N3CCCCC3)c2)cc1
7. O=C(N[C@@H]1CCOC1=O)c1ccc2cc(Oc3ccc(C(F)(F)F)cn3)ccc2n1

RESULT:
[2.1, 3.8, 3.04, 8.3, 3.4, 16.1, 32.7]

Respectfully, I request Papp for each entry included below.
1. CS(=O)(=O)CCNC(=O)c1ccc2cc(Oc3ccc(C(F)(F)F)cn3)ccc2n1
2. O=C(c1ccc2cc(Oc3ccc(C(F)(F)F)cn3)ccc2n1)N1CC[C@H](F)C1
3. N#Cc1ccc(Oc2ccc3c(ccc(=O)n3CCN3CCCCC3)c2)cc1
4. O=C(c1ccc2cc(Oc3ccc(C(F)(F)F)cn3)ccc2n1)N1CCNC(C(F)(F)F)C1 (stereo unspecified)
5. O=C(c1ccc2cc(Oc3ccc(C(F)F)cn3)ccc2n1)N1CCNCC1
6. O=C(NC1CC(F)C1)c1ccc2cc(Oc3ccc(C(F)(F)F)cn3)ccc2n1 (stereo unspecified)

RESULT:
[18, 31.6, 3.7, 24.3, 3.3, 16.7]

// provenance: ChEMBL document CHEMBL5143671
